- System Tested: Cad1 (UniProt P24813)
- Sequence: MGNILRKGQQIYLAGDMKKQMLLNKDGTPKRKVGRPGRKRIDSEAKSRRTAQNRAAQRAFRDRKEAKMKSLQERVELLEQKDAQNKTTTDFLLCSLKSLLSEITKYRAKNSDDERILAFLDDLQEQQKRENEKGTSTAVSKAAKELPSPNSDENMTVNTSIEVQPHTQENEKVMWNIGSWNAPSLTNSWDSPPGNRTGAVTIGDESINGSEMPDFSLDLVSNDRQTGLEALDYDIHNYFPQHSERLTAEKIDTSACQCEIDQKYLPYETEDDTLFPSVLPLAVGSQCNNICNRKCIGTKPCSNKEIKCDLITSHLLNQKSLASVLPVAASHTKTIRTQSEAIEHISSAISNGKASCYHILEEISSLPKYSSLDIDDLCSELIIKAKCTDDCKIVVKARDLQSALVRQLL
- Test: PBM E-score (8-mer binding enrichment) (E-score (-0.5 to 0.5)); higher = stronger / more preferred TF binding
- Condition Summary: protein concentration: 100 nM; construct: GST-full length
The full ranking holds about 33,000 sequences; the median of “E-score (-0.5 to 0.5)” is about -0.0014, and the highest 2% start at about 0.25. Many of the other results were omitted from the sample, so the highest values are more common in it than they were.
just bin them by PBM E-score: bin 1 = under 0.01, bin 2 = from 0.01 up to 0.2, bin 3 = 0.2 and over

Example results:
- Construct Sequence: "CTAAGCAC"
  Group Label: "bin 3"
- Construct Sequence: "AGCAACGG"
  Group Label: "bin 2"
- Construct Sequence: "CCCTAATC"
  Group Label: "bin 1"

For CATTAAGC , which PBM E-score bin applies?
bin 2

For ACCTAATC , which PBM E-score bin applies?
bin 3

For CATTGAGA , which PBM E-score bin applies?
bin 1

For AGTGGCGG , which PBM E-score bin applies?
bin 1

For CAATAACA , which PBM E-score bin applies?
bin 1

For GTAAGCTA , which PBM E-score bin applies?
bin 3

For ACATAACC , which PBM E-score bin applies?
bin 1

For GTGTGACA , which PBM E-score bin applies?
bin 2

For CGTTCGTC , which PBM E-score bin applies?
bin 3

====

Hi there, I'd appreciate the recorded PBM E-score for every entry that follows.
- System Tested: Cad1 (UniProt P24813)
- Sequence: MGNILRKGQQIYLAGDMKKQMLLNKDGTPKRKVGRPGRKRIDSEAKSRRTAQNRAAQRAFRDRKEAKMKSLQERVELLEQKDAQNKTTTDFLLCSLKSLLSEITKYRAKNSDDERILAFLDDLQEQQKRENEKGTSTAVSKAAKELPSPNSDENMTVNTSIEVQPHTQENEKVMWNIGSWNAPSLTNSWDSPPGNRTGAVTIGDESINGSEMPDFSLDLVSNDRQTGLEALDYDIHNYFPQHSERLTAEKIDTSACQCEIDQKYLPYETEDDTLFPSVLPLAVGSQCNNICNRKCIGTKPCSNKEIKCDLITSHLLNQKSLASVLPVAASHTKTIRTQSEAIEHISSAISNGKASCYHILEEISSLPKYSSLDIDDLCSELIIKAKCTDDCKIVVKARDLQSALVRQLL
- Test: PBM E-score (8-mer binding enrichment) (E-score (-0.5 to 0.5)); higher = stronger / more preferred TF binding
- Condition Summary: protein concentration: 100 nM; construct: GST-full length
The full ranking holds about 33,000 sequences; the median of “E-score (-0.5 to 0.5)” is about -0.0014, and the highest 2% start at about 0.25. Shown is part of a subset that was picked to be rich in the highest values.

A selection of reference data follows.
- Construct Sequence: "AAAAGTAT"
  System Tested: "Cad1 (UniProt P24813)"
  Result: 0.0548
- Construct Sequence: "CAACAGGA"
  System Tested: "Cad1 (UniProt P24813)"
  Result: -0.182

Required: PBM E-score, one value per sequence below.
1. AATTAGAT
2. TATAAGAA
3. CCTAGCAA
4. AACGCGAG

1. 0.252
2. 0.0437
3. -0.0559
4. 0.115

Required: PBM E-score, one value per sequence below.
1. CCGGTCCG
2. ACGGCGCC

-0.104
0.139

Required: PBM E-score, one value per sequence below.
1. ATTCTCCC
2. AGTTAGTC
3. ATAATCCA

1: 0.115; 2: -0.0819; 3: 0.252

Required: PBM E-score, one value per sequence below.
1. AACGCGAA
2. AGAATTCT
3. GATTAGTA
4. ACCGATTA
5. ATCGATCG
6. CTAATCTA

1. 0.298
2. 0.278
3. 0.31
4. 0.123
5. 0.188
6. 0.0215

Required: PBM E-score, one value per sequence below.
1. TAAAAGAA
2. AATTAGTC
3. GCTGGGCC
4. ATAATCCG
5. CAAGCGCC
6. GTCGATTA

1: 0.0891; 2: 0.346; 3: -0.297; 4: 0.119; 5: -0.119; 6: 0.115

Required: PBM E-score, one value per sequence below.
1. CTAATCCA
2. TATCTTCA
3. CTAATTTA
4. AGTCAGGG

1. 0.131
2. -0.0564
3. 0.199
4. -0.148

Required: PBM E-score, one value per sequence below.
1. AGAATTCA
2. CAAAGTAA
3. GTAATCTA
4. AGTACCTG
5. GTTCGGAA

0.126
-0.00082
0.268
-0.0799
0.174

Required: PBM E-score, one value per sequence below.
1. ATCCCTTG
2. ATAATCTA
3. AATTAGAG
4. CAACATGA

-0.131
0.185
0.0346
0.144

====

Hi there, I'd appreciate the recorded PBM E-score for every entry that follows.
- System Tested: Cad1 (UniProt P24813)
- Sequence: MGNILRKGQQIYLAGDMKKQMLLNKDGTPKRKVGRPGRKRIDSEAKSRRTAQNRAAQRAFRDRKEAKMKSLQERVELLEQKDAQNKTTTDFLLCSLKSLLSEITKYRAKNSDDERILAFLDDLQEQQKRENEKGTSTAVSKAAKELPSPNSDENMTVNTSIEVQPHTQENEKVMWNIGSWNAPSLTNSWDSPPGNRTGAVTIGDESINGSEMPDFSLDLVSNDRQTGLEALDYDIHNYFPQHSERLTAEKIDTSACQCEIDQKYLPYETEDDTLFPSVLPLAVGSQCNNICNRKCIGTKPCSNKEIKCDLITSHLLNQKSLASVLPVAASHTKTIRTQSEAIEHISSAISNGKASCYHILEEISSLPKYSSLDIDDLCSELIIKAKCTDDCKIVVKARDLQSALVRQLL
- Test: PBM E-score (8-mer binding enrichment) (E-score (-0.5 to 0.5)); higher = stronger / more preferred TF binding
- Condition Summary: protein concentration: 100 nM; construct: GST-full length
The full ranking holds about 33,000 sequences; the median of “E-score (-0.5 to 0.5)” is about -0.0014, and the highest 2% start at about 0.25. Shown is part of a subset that was picked to be rich in the highest values.
Answers are plain numbers.

Required: PBM E-score, one value per sequence below.
1. GATTAATA
2. ACTAATCC
3. ACCAAAAA
4. ACCAAAAC
5. ATTAATCA

1: 0.354; 2: 0.242; 3: 0.278; 4: -0.0311; 5: 0.436

Required: PBM E-score, one value per sequence below.
1. AACAATAA
2. CACTGGCA
3. ACTAATCG
4. ACCAAAAT
5. ACCGGAAA
6. TCTGAACA

0.211
-0.0733
0.356
0.0849
0.135
0.184

Required: PBM E-score, one value per sequence below.
1. AAGTGTTA
2. GGCACCTA
3. AAGCCCAC
4. GATTAAAA
5. CAAGAACA
6. TGAACTAA
7. GTCCGGAC

1. 0.0352
2. -0.156
3. -0.0637
4. 0.214
5. 0.0216
6. -0.063
7. 0.319

Required: PBM E-score, one value per sequence below.
1. AGCGCCAA
2. TCCGGAAA
3. CTTAATCA
4. AGATACAA
5. GACTACGA
6. AAGAACCA

[-0.0679, 0.252, 0.141, 0.256, -0.0382, -0.00253]

====

- System Tested: Cad1 (UniProt P24813)
- Sequence: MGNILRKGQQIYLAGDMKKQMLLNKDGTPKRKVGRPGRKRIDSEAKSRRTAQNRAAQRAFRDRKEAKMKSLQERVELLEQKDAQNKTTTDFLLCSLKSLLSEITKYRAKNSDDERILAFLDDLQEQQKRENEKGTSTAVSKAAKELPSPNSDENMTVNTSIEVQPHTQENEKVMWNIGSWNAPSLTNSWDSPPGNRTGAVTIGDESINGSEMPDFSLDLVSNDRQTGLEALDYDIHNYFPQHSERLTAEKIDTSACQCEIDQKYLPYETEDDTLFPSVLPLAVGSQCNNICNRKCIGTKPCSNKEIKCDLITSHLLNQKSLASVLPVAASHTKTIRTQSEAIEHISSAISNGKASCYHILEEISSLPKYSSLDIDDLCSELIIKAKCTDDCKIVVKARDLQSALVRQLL
- Test: PBM E-score (8-mer binding enrichment) (E-score (-0.5 to 0.5)); higher = stronger / more preferred TF binding
- Condition Summary: protein concentration: 100 nM; construct: GST-full length
Whole data set: some 33,000 sequences, median “E-score (-0.5 to 0.5)” near -0.0014, cut for the highest 2% near 0.25. This is one part of a sample in which the highest values are shown more often than they occur.
just bin them by PBM E-score: 1: < 0.04; 2: ≥ 0.04 and < 0.1; 3: ≥ 0.1

- Construct Sequence: "GTAAGCGA"
  Group Label: 3
- Construct Sequence: "CCTTATCA"
  Group Label: 3
- Construct Sequence: "CGATACAC"
  Group Label: 1
- Construct Sequence: "CCTTATCG"
  Group Label: 2
- Construct Sequence: "ATAAGCGG"
  Group Label: 2
- Construct Sequence: "CAAGACAG"
  Group Label: 1
- Construct Sequence: "ATGAGTAA"
  Group Label: 3
- Construct Sequence: "AAGCGCGG"
  Group Label: 1
- Construct Sequence: "CAAACACG"
  Group Label: 3
- Construct Sequence: "ATGAGTAC"
  Group Label: 1

For AAGCGCTG , which PBM E-score bin applies?
3

For AATCCCAG , which PBM E-score bin applies?
2

For ACTCCACT , which PBM E-score bin applies?
1

For CAGCAATA , which PBM E-score bin applies?
3

For CCTCGAAC , which PBM E-score bin applies?
1

For GTGAGTAA , which PBM E-score bin applies?
3

For ATGAGTAG , which PBM E-score bin applies?
2
